The entries below come with measured IC50 values attached.
- assayed_target: caspase-3 (Homo sapiens (Human), UniProt P42574)
- Sequence (P42574 29-175): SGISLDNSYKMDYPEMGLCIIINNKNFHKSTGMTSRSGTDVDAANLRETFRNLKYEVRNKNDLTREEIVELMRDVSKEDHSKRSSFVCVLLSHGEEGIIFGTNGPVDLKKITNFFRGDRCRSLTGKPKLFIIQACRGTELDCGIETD
- Sequence (P42574 176-277): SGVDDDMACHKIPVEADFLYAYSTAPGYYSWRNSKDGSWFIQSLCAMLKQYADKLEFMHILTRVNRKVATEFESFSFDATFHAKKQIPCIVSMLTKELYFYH
- protocol_description: Caspase-3 Inhibitor Drug Screening Kit, fluorometric enzymatic assay
- Format: biochemical
- condition: 30-minute incubation at 37° C., AFC liberation
Where a name gives a salt, the structure may show the parent alone. Non-standard residues stand in square brackets, D forms with d. Residues, ends and D or L forms follow the SMILES beside them. *: point of attachment. Phg = N[C@H](C(=O)O)c1ccccc1; Cbz = O=C(OCc1ccccc1)*; OtBu = CC(C)(C)O*

[Q] Look up IC50: CC(C)(C)OC(=O)C[C@H](N)/C=C/S(C)(=O)=O.Cc1ccc(S(=O)(=O)O)cc1 (stereo in doubt)
[A] > 10 µM

More entries:
[Q] What does the data say about its IC50? Entry: `Cc1ccc(S(=O)(=O)N[C@@H](Cc2ccc3ccccc3n2)C(=O)N[C@H](C(=O)N[C@H](/C=C(\Cl)S(C)(=O)=O)CC(=O)O)C(C)C)cc1`
[A] > 3.33 µM

[Q] Request the reported IC50 associated with CC(C)(C)OC(=O)C[C@H](N)/C=C/S(=O)(=O)c1ccccc1 [Compound 37, Asp Vinyl phenyl sulfone tosyl salt]
[A] > 2 µM

[Q] Looking for the measured IC50 of `CC(C)[C@H](NC(=O)OCc1ccccc1)C(=O)N[C@H](/C=C/S(C)(=O)=O)CC(=O)O` , can you help?
[A] > 3.33 µM

[Q] Consider the molecule shown here: `CC(C)(C)OC(=O)C[C@@H](/C=C/S(=O)(=O)c1ccccc1)NC(=O)OC(C)(C)C` What is its recorded IC50?
[A] > 2 µM

[Q] Can you look up the measured IC50 of CC(C)[C@H](NC(=O)[C@@H](Cc1ccc2ccccc2n1)NC(=O)[C@H](CC(=O)O)NC(=O)OCc1ccccc1)C(=O)N[C@H](/C=C/S(=O)(=O)c1ccccc1)CC(=O)O (stereo in doubt) for me?
[A] 0.3 µM

[Q] Requested field: IC50. Item: `CC(C)[C@H](NC(=O)[C@H](Cc1ccc(O)cc1)NC(=O)OCc1ccccc1)C(=O)N[C@@H](C)C(=O)N[C@H](/C=C/S(=O)(=O)c1ccccc1)CC(=O)O`
[A] > 10 µM

[Q] Recorded IC50 for CS(=O)(=O)/C=C/[C@@H](N)CC(=O)O.Cc1ccc(S(=O)(=O)O)cc1 [Compound 93, Aspmethyl vinyl sulfone tosyl salt] , please?
[A] > 10 µM

[Q] Item CC(C)[C@H](NC(=O)[C@@H](NC(=O)[C@H](CC(=O)OC(C)(C)C)NC(=O)OCc1ccccc1)c1ccccc1)C(=O)O [Compound 16, Z-Asp(β-tert-Butyl)-Phg-Val-OH.] (Cbz-Asp(OtBu)-[Phg]-Val-OH) has what recorded IC50?
[A] > 2 µM
